# ASSAY_METHOD_TEXT: displacement of TO-PRO-1 from d(CAG) DNA duplex, late-stage follow-up, counter-screen for r(CAG) RNA repeat binder project, biochemical, fluorescence, 5'CAG/3'GTC DNA, powders, MedChem round 1 (AID 743498)
# SETTINGS: DNA d(CAG) repeat TO-PRO-1 dye displacement
Active and inactive are the calls of the source.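 How the source made its calls: active means IC50, the dose giving half inhibition, at or below 10 µM; inactive means IC50 above 10 µM.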
Outcome (select one): active, inactive

Solved cases (4 shown):
>>> df
                                  structure  label_class
0  CCN(c1ccccc1)S(=O)(=O)c1ccc(NC(=O)c2oc3ccc(F)cc3c2C)cc1     inactive
1  CCN(CC)C(=O)/C=C/c1cn(-c2ccccc2)nc1-c1ccccc1     inactive
2  Cc1ccc(-c2nn(-c3ccccc3)cc2/C=C/C(=O)Nc2ccc(S(N)(=O)=O)cc2)cc1     inactive
3  CC(=O)NS(=O)(=O)c1ccc(NC(=O)/C=C/c2cn(-c3ccccc3)nc2-c2ccccc2)cc1       active

Entry `O=C(/C=C/c1cn(-c2ccccc2)nc1-c1ccccc1)NCc1ccccc1` : call = ? inactive

---

# ASSAY_METHOD_TEXT: displacement of TO-PRO-1 from d(CAG) DNA duplex, late-stage follow-up, counter-screen for r(CAG) RNA repeat binder project, biochemical, fluorescence, 5'CAG/3'GTC DNA, powders, MedChem round 1 (AID 743498)
# SETTINGS: DNA d(CAG) repeat TO-PRO-1 dye displacement
Calls of active or inactive are those of the source.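 Rule for the calls: active = IC50, the dose giving half inhibition, at or below 10 µM; inactive = IC50 above 10 µM.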
Outcome (select one): True for active, False for inactive

                                  structure  label_class
0  O=C(/C=C/c1cn(-c2ccccc2)nc1-c1ccccc1)N1CCN(CC(=O)N2CCCC2)CC1        False
1  O=C(/C=C\c1cn(-c2ccccc2)nc1-c1ccc(F)cc1)Nc1ccc(C(=O)O)cc1         True
2  COc1ccc(-c2nn(-c3ccccc3)cc2/C=C/C(=O)Nc2cccc(NC(C)=O)c2)cc1OC        False
3  CCOC(=O)N1CCC(NC(=O)/C=C/c2cn(-c3ccccc3)nc2-c2ccccc2)CC1        False
4  CNC(=O)Cc1ccc(NC(=O)/C=C/c2cn(-c3ccccc3)nc2-c2ccc(F)cc2)cc1        False
5  NS(=O)(=O)c1ccc(NC(=O)/C=C/c2cn(-c3ccccc3)nc2-c2cccc(Cl)c2)cc1        False
6  N#C/C(=C/c1cn(Cc2ccccc2)nc1-c1cccnc1)C(=O)Nc1ccc(C(=O)O)cc1        False
7  Cc1ccc(-c2nn(-c3ccccc3)cc2/C=C/C(=O)Nc2cccc(S(N)(=O)=O)c2)cc1        False

Entry `COc1ccc(-c2nn(-c3ccccc3)cc2/C=C/C(=O)Nc2ccc(C(=O)O)cc2)cc1` : call = ? True

Entry `CN1C(=O)/C(=C/c2cn(-c3ccccc3)nc2-c2ccccc2)c2ccccc21` : call = ? False

---

# ASSAY_METHOD_TEXT: displacement of TO-PRO-1 from d(CAG) DNA duplex, late-stage follow-up, counter-screen for r(CAG) RNA repeat binder project, biochemical, fluorescence, 5'CAG/3'GTC DNA, powders, MedChem round 1 (AID 743498)
# SETTINGS: DNA d(CAG) repeat TO-PRO-1 dye displacement
Calls of active or inactive are those of the source.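 How the source made its calls: active means IC50, the dose giving half inhibition, at or below 10 µM; inactive means IC50 above 10 µM.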
Entries and their IC50 values follow.

Solved cases below.
>>> print(df.to_string())
                                  structure  observed_property            meas_value
0  O=C(/C=C/c1cn(-c2ccccc2)nc1-c1ccccc1)NCCO               IC50  > 29.9 µM (inactive)
1  CN(C)C(=O)C1CCN(C(=O)/C=C/c2cn(-c3ccccc3)nc2-c2ccccc2)CC1               IC50  > 29.9 µM (inactive)
2  CS(=O)(=O)Nc1cc(NC(=O)/C=C/c2cn(-c3ccccc3)nc2-c2ccccc2)ccc1F               IC50    12.2 µM (inactive)
3  CN1CCC(N(C)C(=O)/C=C/c2cn(-c3ccccc3)nc2-c2ccccc2)CC1               IC50  > 29.9 µM (inactive)

Notebook: `Cc1c(C(=O)Nc2ccc(S(=O)(=O)Nc3ncccn3)cc2)oc2ccc(F)cc12` , IC50 read as > 29.9 µM (inactive)
